Tested on: 3798 S. aureus (GISA)
Protocol Summary: MIC, broth microdilution in Meuller-Hinton broth (NCCLS)
Format: cell-based, Staphylococus aureus
Test Parameters: glycopeptides-intermediate clinical isolate
Property Measured: MIC 3798 S. aureus (GISA) (µg/mL)
Please give a number only; it is taken to be in µg/mL.

| Molecule | Result Units | MIC 3798 S. aureus (GISA) |
| --- | --- | --- |
| CNC(CC(C)C)C(=O)NC1C(=O)NC(CC(N)=O)C(=O)NC2C(=O)NC3C(=O)NC(C(=O)NC(C(=O)O)c4cc(O)cc(O)c4-c4cc3ccc4O)C(O)c3ccc(c(Cl)c3)Oc3cc2cc(c3OC2OC(CO)C(O)C(O)C2OC2CC(C)(NC(=O)CNCc3ccc(C(F)(F)F)cc3)C(O)C(C)O2)Oc2ccc(cc2Cl)C1O (stereo not drawn) | µg/mL | 4 |

Next item in the queue.
Query: Please look up its MIC 3798 S. aureus (GISA): CCCCc1ccc(CNCC(=O)NC2(C)CC(OC3C(Oc4c5cc6cc4Oc4ccc(cc4Cl)C(O)C(NC(=O)C(CC(C)C)NC)C(=O)NC(CC(N)=O)C(=O)NC6C(=O)NC4C(=O)NC(C(=O)NC(C(=O)NC6C7CC8CC(C7)CC6C8)c6cc(O)cc(O)c6-c6cc4ccc6O)C(OC4CC(C)(N)C(O)C(C)O4)c4ccc(cc4)O5)OC(CO)C(O)C3O)OC(C)C2O)cc1 (stereo not drawn)
Result: 16
